Test system: Rattus norvegicus
Test: Anticonflict activity measured in male wistar rats; number of shocks received in 5 min at an intravenous dose of 10 mg/kg.
Format: functional
measured property: Activity

[[record]]
molecule = "CCCOC(=O)c1cc2c(cn1)sc1ccccc12"
target = "Rattus norvegicus"
reported_measurement = 9.6

[[record]]
molecule = "CC1CCCC(C)N1C(=O)c1cc2c(cn1)sc1ccccc12 (configuration not stated)"
target = "Rattus norvegicus"
reported_measurement = 4.5

[[record]]
molecule = "COC(=O)CCCNC(=O)c1cc2c(cn1)sc1ccccc12"
target = "Rattus norvegicus"
reported_measurement = 9.9

[[record]]
molecule = "CN1CCCN(C(=O)c2cc3c(cn2)sc2ccccc23)CC1.Cl"
target = "Rattus norvegicus"
reported_measurement = 3.5

[[record]]
molecule = "CCOC(=O)C1Cc2c(sc3ccccc23)CN1C(=O)c1ccccc1 (configuration not stated)"
target = "Rattus norvegicus"
reported_measurement = 6.3

[[record]]
molecule = "CN1CCN(C(=O)c2cc3c(cn2)sc2ccccc23)CC1.Cl"
target = "Rattus norvegicus"
reported_measurement = 3.3

[[record]]
molecule = "O=C(O)c1cc2c(cn1)sc1ccccc12"
target = "Rattus norvegicus"
reported_measurement = 4


###

System: Rattus norvegicus
Test: Anticonflict activity measured in male wistar rats; number of shocks received in 5 min at an intravenous dose of 10 mg/kg.
Assay type: functional
Entry flag: yes if Activity reaches 20; no if it does not.

[[record]]
compound = "NNC(=O)c1cc2c(cn1)sc1ccccc12"
target = "Rattus norvegicus"
discrete_label = "no"

[[record]]
compound = "CN(C)CCNC(=O)c1cc2c(cn1)sc1ccccc12.Cl"
target = "Rattus norvegicus"
discrete_label = "no"

[[record]]
compound = "CC(=O)N1CCCN(C(=O)c2cc3c(cn2)sc2ccccc23)CC1.Cl"
target = "Rattus norvegicus"
discrete_label = "yes"

[[record]]
compound = "CC1CN(C(=O)c2cc3c(cn2)sc2ccccc23)CCN1.Cl (stereo not drawn)"
target = "Rattus norvegicus"
discrete_label = "no"

[[record]]
compound = "COC(=O)C1Cc2c(sc3ccccc23)CN1 (stereo not drawn)"
target = "Rattus norvegicus"
discrete_label = "no"

[[record]]
compound = "CCCCCCNC(=O)c1cc2c(cn1)sc1ccccc12"
target = "Rattus norvegicus"
discrete_label = "no"

[[record]]
compound = "NC(=O)c1cc2c(cn1)sc1ccccc12"
target = "Rattus norvegicus"
discrete_label = "no"

[[record]]
compound = "O=C(NC1CCCCC1)C1Cc2c(sc3ccccc23)CN1 (stereo not drawn)"
target = "Rattus norvegicus"
discrete_label = "yes"

[[record]]
compound = "CCNC(=O)c1cc2c(cn1)sc1ccccc12"
target = "Rattus norvegicus"
discrete_label = "no"

[[record]]
compound = "CNC(=O)c1cc2c(cn1)sc1ccccc12"
target = "Rattus norvegicus"
discrete_label = "no"

[[record]]
compound = "Cl.NCCNC(=O)c1cc2c(cn1)sc1ccccc12"
target = "Rattus norvegicus"
discrete_label = "yes"

[[record]]
compound = "CCOC(=O)c1cc2c(cn1)sc1ccccc12"
target = "Rattus norvegicus"
discrete_label = "no"

[[record]]
compound = "CCOC(=O)C1Cc2c(sc3ccccc23)CN1 (stereo not drawn)"
target = "Rattus norvegicus"
discrete_label = "yes"


###

Molecular target: GABA-A receptor; anion channel
Assay: Inhibition of [3H]flunitrazepam binding to GABA-A Benzodiazepine receptor of Wistar rat cerebral cortex
pIC50: −log10 of the molar value.
A collection of molecules and their measured pIC50
measured property: pIC50

[[record]]
molecule = "O=C(NC1CCCCC1)C1Cc2c(sc3ccccc23)CN1 (centres undefined)"
measured_property = "pIC50"
reported_measurement = 2.80

[[record]]
molecule = "CCCOC(=O)c1cc2c(cn1)sc1ccccc12"
measured_property = "pIC50"
reported_measurement = 2.82

[[record]]
molecule = "CCOC(=O)C1Cc2c(sc3ccccc23)CN1 (centres undefined)"
measured_property = "pIC50"
reported_measurement = 2.82

[[record]]
molecule = "NC(=O)c1cc2c(cn1)sc1ccccc12"
measured_property = "pIC50"
reported_measurement = 2.81


###

Molecular target: 5-hydroxytryptamine receptor 1A (Rattus norvegicus, UniProt P19327)
Sequence (P19327 whole entry): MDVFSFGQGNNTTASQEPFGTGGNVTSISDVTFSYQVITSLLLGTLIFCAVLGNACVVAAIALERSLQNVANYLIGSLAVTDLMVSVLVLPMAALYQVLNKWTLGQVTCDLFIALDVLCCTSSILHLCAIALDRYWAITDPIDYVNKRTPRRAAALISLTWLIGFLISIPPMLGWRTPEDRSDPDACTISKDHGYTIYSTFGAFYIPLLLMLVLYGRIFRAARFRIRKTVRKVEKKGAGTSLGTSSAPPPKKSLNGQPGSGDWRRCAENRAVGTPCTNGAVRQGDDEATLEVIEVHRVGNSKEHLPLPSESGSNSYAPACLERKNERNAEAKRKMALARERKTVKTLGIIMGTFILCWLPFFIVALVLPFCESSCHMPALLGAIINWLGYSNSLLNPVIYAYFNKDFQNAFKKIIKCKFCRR
measured property: Ki

[[record]]
compound = "O=C(NC1CCCCC1)C1Cc2c(sc3ccccc23)CN1 (stereo unspecified)"
target = "5-hydroxytryptamine receptor 1A (Rattus norvegicus, UniProt P19327)"
reported_measurement = "0.28 µM"


###

Test system: Rattus norvegicus
Assay: Anticonflict activity measured in male wistar rats; number of shocks received in 5 min at an intravenous dose of 10 mg/kg.
Type: functional
Listed molecules paired with reported Activity
measured property: Activity

[[record]]
molecule = "Cl.O=C(c1cc2c(cn1)sc1ccccc12)N1CCCN(Cc2ccc(Cl)cc2)CC1"
reported_measurement = 12.8

[[record]]
molecule = "Cl.NCCCNC(=O)c1cc2c(cn1)sc1ccccc12"
reported_measurement = 15.2

[[record]]
molecule = "CCOC(=O)C1Cc2c(sc3ccccc23)CN1C(=O)c1ccccc1Cl (configuration not stated)"
reported_measurement = 2.5

[[record]]
molecule = "Cl.O=C(c1cc2c(cn1)sc1ccccc12)N1CCNCC1"
reported_measurement = 17.8

[[record]]
molecule = "O=C(c1cc2c(cn1)sc1ccccc12)N1CCCCC1"
reported_measurement = 5

[[record]]
molecule = "Cl.O=C(c1cc2c(cn1)sc1ccccc12)N1CCCNCC1"
reported_measurement = 21.8

[[record]]
molecule = "O=C(c1cc2c(cn1)sc1ccccc12)N1CCOCC1"
reported_measurement = 8.2

[[record]]
molecule = "Cl.NCC(=O)N1CCCN(C(=O)c2cc3c(cn2)sc2ccccc23)CC1"
reported_measurement = 14.1

[[record]]
molecule = "COC(=O)c1cc2c(cn1)sc1ccccc12"
reported_measurement = 8.5

[[record]]
molecule = "CCCNC(=O)c1cc2c(cn1)sc1ccccc12"
reported_measurement = 17.3

[[record]]
molecule = "CCOC(=O)C1Cc2c(sc3ccccc23)CN1C (configuration not stated)"
reported_measurement = 22

[[record]]
molecule = "CCCOC(=O)C1Cc2c(sc3ccccc23)CN1 (configuration not stated)"
reported_measurement = 14.5

